# testSummary: Pharmacokinetic study after IP administration
# Format: in vivo, female BALB/c mice
# conditions: female, BALB/c, mouse, serum, ip, non-compartmental approach, IP; read-out: serum terminal half-life (converted)
metricName: half-life

Report half-life for Cn1c(=O)c2c(nc(NCCc3ccccc3)n2CCCC(=O)NN=Cc2ccccc2O)n(C)c1=O [GRMS-55]
~30 min

* * *

# testSummary: Pharmacokinetic study after IP administration
# Type: in vivo, female BALB/c mice
# conditions: female, BALB/c, mouse, serum, ip, mice, IP; read-out: terminal half-life
metricName: half-life

Report half-life for "Cn1c(=O)c2c(nc(NCCc3ccccc3)n2CCCC(=O)NN=Cc2ccccc2O)n(C)c1=O"
~30 min

Where do the numbers come from? From paper PMC8143339.
